target_entity: ABCC1 (Homo sapiens)
Construct: ABCC1-overexpressing H69AR (60,000 cells/well) cells were added
Sequence (P33527 whole entry): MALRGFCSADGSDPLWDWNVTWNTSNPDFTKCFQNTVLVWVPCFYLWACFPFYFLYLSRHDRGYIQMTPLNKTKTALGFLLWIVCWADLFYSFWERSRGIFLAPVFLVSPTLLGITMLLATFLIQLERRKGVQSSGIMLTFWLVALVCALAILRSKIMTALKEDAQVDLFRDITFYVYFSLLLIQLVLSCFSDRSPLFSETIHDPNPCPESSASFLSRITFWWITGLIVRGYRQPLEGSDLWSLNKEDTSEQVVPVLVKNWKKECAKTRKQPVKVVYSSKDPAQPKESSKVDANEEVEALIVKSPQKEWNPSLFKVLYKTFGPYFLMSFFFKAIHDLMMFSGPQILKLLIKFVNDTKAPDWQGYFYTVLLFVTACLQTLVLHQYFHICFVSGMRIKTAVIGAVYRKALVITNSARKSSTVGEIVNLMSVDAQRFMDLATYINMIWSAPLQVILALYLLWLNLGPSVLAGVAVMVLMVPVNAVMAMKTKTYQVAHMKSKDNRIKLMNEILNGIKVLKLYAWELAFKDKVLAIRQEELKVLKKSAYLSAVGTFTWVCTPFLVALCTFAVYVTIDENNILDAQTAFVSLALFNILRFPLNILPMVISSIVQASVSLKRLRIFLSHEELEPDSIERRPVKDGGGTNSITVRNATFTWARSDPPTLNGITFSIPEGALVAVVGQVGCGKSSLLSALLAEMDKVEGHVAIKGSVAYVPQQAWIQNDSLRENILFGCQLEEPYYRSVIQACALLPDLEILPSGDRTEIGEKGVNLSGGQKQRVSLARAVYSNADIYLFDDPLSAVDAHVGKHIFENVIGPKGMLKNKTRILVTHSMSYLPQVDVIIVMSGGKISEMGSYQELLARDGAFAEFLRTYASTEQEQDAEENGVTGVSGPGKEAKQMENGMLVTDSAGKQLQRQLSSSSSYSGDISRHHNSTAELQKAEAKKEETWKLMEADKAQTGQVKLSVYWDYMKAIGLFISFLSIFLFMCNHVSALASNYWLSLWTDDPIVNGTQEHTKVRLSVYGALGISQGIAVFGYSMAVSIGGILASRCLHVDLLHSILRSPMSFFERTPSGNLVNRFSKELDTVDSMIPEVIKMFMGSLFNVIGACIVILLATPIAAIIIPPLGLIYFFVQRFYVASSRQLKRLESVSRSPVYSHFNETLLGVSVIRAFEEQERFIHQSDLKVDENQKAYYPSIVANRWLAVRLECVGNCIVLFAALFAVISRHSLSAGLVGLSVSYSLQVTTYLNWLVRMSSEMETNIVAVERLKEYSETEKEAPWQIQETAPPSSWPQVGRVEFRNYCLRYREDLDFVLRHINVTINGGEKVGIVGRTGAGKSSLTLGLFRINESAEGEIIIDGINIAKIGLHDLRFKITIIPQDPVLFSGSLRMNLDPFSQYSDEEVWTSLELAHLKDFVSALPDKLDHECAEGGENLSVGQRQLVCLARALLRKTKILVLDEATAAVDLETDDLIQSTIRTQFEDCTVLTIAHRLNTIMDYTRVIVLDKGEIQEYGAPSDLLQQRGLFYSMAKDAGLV
protocol: calcein AM fluorescence accumulation assay, ABCC1-overexpressing H69AR cells
run_conditions: calcein AM assay, H69AR cells; 100% = 10 µM reference inhibitor 26; read-out: IC50 against ABCC1
measurement_type: pIC50
Give bare numbers, as −log10 of the molar value.

For Cc1nc(N2CCN(C(=O)C(c3ccccc3)c3ccccc3)CC2)cc(-n2ccnc2)n1 [compound 23] the compound record lists pIC50 as 4.83

====

target_entity: ABCB1 (Homo sapiens)
Construct: ABCB1-overexpressing A2780/ADR (30,000 cells/well); host or cells: A2780/ADR
Sequence (P08183 whole entry): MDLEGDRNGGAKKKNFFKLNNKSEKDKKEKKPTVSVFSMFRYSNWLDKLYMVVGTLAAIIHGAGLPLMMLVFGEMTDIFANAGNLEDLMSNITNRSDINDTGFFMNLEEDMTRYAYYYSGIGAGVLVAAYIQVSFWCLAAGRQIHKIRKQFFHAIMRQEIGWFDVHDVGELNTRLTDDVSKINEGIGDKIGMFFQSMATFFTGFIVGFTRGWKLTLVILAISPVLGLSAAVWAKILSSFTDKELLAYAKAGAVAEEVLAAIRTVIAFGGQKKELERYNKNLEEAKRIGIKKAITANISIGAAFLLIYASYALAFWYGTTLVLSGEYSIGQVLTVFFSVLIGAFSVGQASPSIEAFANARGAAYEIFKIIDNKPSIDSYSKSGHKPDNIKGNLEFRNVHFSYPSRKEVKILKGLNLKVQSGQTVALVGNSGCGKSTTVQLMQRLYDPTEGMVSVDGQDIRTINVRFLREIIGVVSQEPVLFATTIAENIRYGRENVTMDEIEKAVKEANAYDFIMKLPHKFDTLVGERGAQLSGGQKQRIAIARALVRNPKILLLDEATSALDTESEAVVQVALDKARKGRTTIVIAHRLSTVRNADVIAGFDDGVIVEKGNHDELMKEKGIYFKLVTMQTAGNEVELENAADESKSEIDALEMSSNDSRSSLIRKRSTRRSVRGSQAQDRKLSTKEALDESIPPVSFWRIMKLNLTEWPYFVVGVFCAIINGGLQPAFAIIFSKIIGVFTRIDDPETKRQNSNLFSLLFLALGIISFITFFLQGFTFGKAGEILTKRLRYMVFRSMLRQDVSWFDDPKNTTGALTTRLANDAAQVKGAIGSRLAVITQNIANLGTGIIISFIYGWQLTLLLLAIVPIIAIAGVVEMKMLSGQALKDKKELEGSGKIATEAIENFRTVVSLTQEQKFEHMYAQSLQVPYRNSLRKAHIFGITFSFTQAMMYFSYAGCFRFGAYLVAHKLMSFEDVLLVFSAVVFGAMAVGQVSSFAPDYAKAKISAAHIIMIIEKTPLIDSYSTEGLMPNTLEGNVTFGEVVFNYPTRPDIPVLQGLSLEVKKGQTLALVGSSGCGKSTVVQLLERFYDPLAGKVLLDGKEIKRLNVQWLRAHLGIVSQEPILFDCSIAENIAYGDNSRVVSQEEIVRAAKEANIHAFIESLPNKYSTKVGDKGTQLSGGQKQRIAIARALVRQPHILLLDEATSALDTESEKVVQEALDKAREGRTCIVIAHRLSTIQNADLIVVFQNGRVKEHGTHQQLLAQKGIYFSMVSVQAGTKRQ
protocol: calcein AM fluorescence accumulation assay, ABCB1-overexpressing A2780/ADR cells
Format: cell-based
run_conditions: screened at 10 µM; active = at least 20% (+SEM) of effect of 10 µM compound 2
measurement_type: activity against ABCB1 in preliminary screening

{"columns": ["compound", "target_entity", "result"],
 "data": [
  ["O=C(c1cccn1-c1nnc(N2CCCC2)s1)N1CCN(Cc2ccc3c(c2)OCO3)CC1", "ABCB1 (Homo sapiens)", "activities against ABCB1"],
  ["Cc1onc(-c2ccccc2)c1-c1nnc(CN2CCCC2c2ccc3c(c2)OCCCO3)o1 (stereo not shown)", "ABCB1 (Homo sapiens)", "activities against ABCB1"],
  ["O=C(NC1CCC(OC(=O)c2cncn2-c2ccc(F)cc2)CC1)c1cncn1-c1ccc(F)cc1 (stereo not shown)", "ABCB1 (Homo sapiens)", "activities against ABCB1"]
]}
